# measurementProtocol: In vivo pharmacokinetics in mice (oral bioavailability, clearance)
# cond: mouse clearance as % of hepatic blood flow
Provide the reported Mouse CL (% Qh) of each item.
Report the value in % Qh with no unit label.

// query Data request, read-out Mouse CL (% Qh), for Cc1ncsc1-c1ccc([C@H](CCCN2CCC(c3ccc4c(c3)n(C3CCCC3)c3nc(=O)c5c(Br)cccc5n43)CC2)NC(=O)[C@@H]2C[C@@H](O)CN2C(=O)[C@@H](NC(=O)C2(F)CC2)C(C)(C)C)cc1 [A3-1]
// result 7.9

// query Continue with Cc1ncsc1-c1ccc([C@H](C[C@@H](C)CN2CCC(c3ccc4c(c3)n(C3CCCC3)c3nc(=O)c5c(Br)cccc5n43)CC2)NC(=O)[C@@H]2C[C@@H](O)CN2C(=O)[C@@H](NC(=O)C2(F)CC2)C(C)(C)C)cc1 [A3-3]
// result 9.3

// query Can you handle Cc1ncsc1-c1ccc([C@H](CC[C@H](C)CCN2CCC(c3ccc4c(c3)n(C3CCCC3)c3nc(=O)c5c(Br)cccc5n43)CC2)NC(=O)[C@@H]2C[C@@H](O)CN2C(=O)[C@@H](NC(=O)C2(F)CC2)C(C)(C)C)cc1 [A5-2] next?
// result 2.3

// query What about this compound? Cc1ncsc1-c1ccc([C@H](CCCCCN2CCC(c3ccc4c(c3)n(C3CCCC3)c3nc(=O)c5c(Br)cccc5n43)CC2)NC(=O)[C@@H]2C[C@@H](O)CN2C(=O)[C@@H](NC(=O)C2(F)CC2)C(C)(C)C)cc1 [A5-1]
// result 2.5

// query How about this compound: Cc1ncsc1-c1ccc([C@@H](CC[C@@H](C)CCN2CCC(c3ccc4c(c3)n(C3CCCC3)c3nc(=O)c5c(Br)cccc5n43)CC2)NC(=O)[C@@H]2C[C@@H](O)CN2C(=O)[C@@H](NC(=O)C2(F)CC2)C(C)(C)C)cc1 [A5-4]
// result 2.8

// query Also Cc1ncsc1-c1ccc([C@H](C[C@H](C)CN2CCC(c3ccc4c(c3)n(C3CCCC3)c3nc(=O)c5c(Br)cccc5n43)CC2)NC(=O)[C@@H]2C[C@@H](O)CN2C(=O)[C@@H](NC(=O)C2(F)CC2)C(C)(C)C)cc1 [A3-2] , if possible.
// result 3.6

// query Try Cc1ncsc1-c1ccc([C@H](CO[C@H](C)CN2CCC(c3ccc4c(c3)n(C3CCCC3)c3nc(=O)c5c(Br)cccc5n43)CC2)NC(=O)[C@@H]2C[C@@H](O)CN2C(=O)[C@@H](NC(=O)C2(F)CC2)C(C)(C)C)cc1 [B-2] next.
// result 5.4
